tested on: MDA-MB-231; experiment: Antiproliferative activity against human MDA-MB-231 cells assessed as reduction in cell viability measured after 72 hrs by AlamarBlue assay; assay type: functional, cell-based; details: MDA-MB-231, 72 h
Quantity: IC50 (nM)
Note: unit nM is implicit; provide only the numeric part.

[in] Name the reported IC50 value associated with the compound `COCCOc1ccc2cc1OCC(=O)N(C)CCCN(C)Cc1c[nH]c3ncnc(c13)N2`
[out] 5

###

Target: Serine/threonine-protein kinase PLK4 (Homo sapiens)
Sequence (O00444 whole entry): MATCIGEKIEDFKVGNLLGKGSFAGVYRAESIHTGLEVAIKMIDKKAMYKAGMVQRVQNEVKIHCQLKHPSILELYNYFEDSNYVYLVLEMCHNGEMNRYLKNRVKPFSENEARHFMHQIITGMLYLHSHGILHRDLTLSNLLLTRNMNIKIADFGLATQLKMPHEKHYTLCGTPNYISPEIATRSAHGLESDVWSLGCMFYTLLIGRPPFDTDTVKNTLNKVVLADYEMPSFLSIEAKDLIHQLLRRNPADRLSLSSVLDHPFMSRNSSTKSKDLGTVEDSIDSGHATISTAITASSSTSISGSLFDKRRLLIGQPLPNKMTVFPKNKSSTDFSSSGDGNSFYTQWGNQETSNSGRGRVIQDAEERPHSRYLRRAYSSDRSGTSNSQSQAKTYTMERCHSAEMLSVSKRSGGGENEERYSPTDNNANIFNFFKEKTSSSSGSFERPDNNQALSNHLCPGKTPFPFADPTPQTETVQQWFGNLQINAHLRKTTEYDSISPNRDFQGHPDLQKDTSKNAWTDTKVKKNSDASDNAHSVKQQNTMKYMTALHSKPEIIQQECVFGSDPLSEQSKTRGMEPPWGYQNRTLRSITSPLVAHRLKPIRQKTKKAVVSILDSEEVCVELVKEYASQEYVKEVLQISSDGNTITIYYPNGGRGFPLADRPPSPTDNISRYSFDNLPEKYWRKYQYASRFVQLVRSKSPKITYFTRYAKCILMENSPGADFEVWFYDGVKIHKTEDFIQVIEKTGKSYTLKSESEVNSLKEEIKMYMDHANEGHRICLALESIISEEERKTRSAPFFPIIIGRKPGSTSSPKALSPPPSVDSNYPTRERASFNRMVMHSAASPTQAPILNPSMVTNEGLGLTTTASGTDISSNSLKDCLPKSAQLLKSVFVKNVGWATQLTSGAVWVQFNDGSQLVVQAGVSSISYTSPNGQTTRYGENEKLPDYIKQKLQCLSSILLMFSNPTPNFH
Test: Inhibition of PLK4 (unknown origin)
Quantity: pIC50
Schema: pIC50 number; meaning minus log10 of the concentration expressed in molar units.

[in] // returns reported pIC50 for input `CNC(=O)c1ccccc1Nc1nc(Nc2ccc(S(C)(=O)=O)cc2)nc2[nH]ncc12`
[out] 7.57

[in] Given `c1ccc(CNc2nc(Nc3cccc(N4CCOCC4)c3)nc3[nH]ncc23)cc1` , state its recorded pIC50.
[out] 5.68

[in] Field request: pIC50 | item: `CN(C)Cc1ccc(/C=C/c2n[nH]c3cc(-c4ccnc(N)n4)ccc23)cc1`
[out] 7.95
